Target: UniProt:P56817
Sequence (P56817 46-501): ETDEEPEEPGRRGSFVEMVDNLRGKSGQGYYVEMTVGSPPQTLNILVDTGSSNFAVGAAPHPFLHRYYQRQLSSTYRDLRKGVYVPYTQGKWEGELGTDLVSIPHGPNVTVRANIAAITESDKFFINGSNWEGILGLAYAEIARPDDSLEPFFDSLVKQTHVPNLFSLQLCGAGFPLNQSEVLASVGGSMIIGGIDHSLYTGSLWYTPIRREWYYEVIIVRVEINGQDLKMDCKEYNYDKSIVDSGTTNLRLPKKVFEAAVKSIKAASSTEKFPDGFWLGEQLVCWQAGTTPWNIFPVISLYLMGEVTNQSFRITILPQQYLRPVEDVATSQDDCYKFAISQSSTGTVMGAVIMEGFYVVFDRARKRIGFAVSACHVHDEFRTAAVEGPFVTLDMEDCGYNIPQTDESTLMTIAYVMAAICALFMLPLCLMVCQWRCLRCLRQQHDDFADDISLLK
recorded_endpoint: IC50
Answer by giving the amount and then stating its unit.

Challenge: // fetch UniProt:P56817 IC50 for `COC(=O)CC[C@@]1(C)[C@H](C(C)(C)O)CC[C@@]2(C)[C@H]1C[C@@]1(C)C(=O)[C@]2(C)C(=O)C(C(=O)OC)=C1C`
Response given: 59 nM
